Values compiled from PubChem BioAssay (NCATS).

Below, each of the compounds is paired with its reported max response value.
Test: qHTS assay for cell viability of HEK293 cells (AID 743288); also: % is scaled to controls: 0 for no effect and ±100 for the full control effect; nearly all actives have a fitted effect of over 50% in size
Conditions: ATP luminescence (CellTiter-Glo), 18 h; active compounds read low
Inconclusive results are not listed.
Write the number in % without appending the unit.

{"Compound": "C=C[Si](OCCOC)(OCCOC)OCCOC", "Result unit": "%", "Value observed": -9.27}
{"Compound": "C=CC(=O)OCC(C)OCC(C)OCC(C)OC(=O)C=C (centres undefined)", "Result unit": "%", "Value observed": -1.74}
{"Compound": "CC1COCc2cc3c(cc21)C(C)(C)C(C)C3(C)C (centres undefined)", "Result unit": "%", "Value observed": -3.83}
{"Compound": "CC(C)CC(C)(O)C#CC(C)(O)CC(C)C (centres undefined)", "Result unit": "%", "Value observed": -6.63}
{"Compound": "C[Si]1(C)O[Si](C)(C)O[Si](C)(C)O[Si](C)(C)O[Si](C)(C)O1", "Result unit": "%", "Value observed": -11.9}

q: Provide one value: measured max response of CCCCC(CC)COP(=O)(O)OCC(CC)CCCC (centres undefined)
a: -5.86

q: Give a short answer stating reported max response for "CS(C)=O" .
a: 1.99
